Some molecules, each annotated with its measured pKd.
Assay Target: HSA (Homo sapiens, UniProt P02768)
Construct: HSA and Tris were obtained from Sigma-Aldrich, St. Louis, MI, USA; purchased Sigma-Aldrich
Sequence (P02768 25-609): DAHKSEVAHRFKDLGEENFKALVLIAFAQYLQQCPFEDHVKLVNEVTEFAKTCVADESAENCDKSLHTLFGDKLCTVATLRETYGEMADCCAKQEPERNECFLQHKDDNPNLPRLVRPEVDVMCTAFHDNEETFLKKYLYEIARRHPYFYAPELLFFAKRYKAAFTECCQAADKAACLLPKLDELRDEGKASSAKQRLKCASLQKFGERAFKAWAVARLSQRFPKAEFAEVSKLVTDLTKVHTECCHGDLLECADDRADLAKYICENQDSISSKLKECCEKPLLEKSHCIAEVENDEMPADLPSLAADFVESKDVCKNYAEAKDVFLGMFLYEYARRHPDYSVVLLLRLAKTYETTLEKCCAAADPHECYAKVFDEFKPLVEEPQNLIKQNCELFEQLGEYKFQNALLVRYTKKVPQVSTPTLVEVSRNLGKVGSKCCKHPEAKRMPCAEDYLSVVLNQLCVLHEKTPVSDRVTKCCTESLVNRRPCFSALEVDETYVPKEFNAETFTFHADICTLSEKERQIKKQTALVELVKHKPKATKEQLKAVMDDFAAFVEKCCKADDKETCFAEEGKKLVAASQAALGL
Test: Fluorescence quenching / fluorescence–thermodynamic experiment with HSA
Assay type: binding
Condition Notes: Ka, 310 K; binding constant, double logarithmic equation
Entry type: numeric. Quantity: pKd, the -log10 of concentration in molar units.

CC(C)(c1cc(Br)c(O)c(Br)c1)c1cc(Br)c(O)c(Br)c1 5.93

Kindly consider the entry below.
Problem: Give the reported value of pKd for this record: CC(C)(c1cc(Cl)c(O)c(Cl)c1)c1cc(Cl)c(O)c(Cl)c1
Result: 4.92
